Provide the reported pIC50 of each item.
Molecular target: Recombinant human renin (Homo sapiens)
Sequence (P00797 67-406): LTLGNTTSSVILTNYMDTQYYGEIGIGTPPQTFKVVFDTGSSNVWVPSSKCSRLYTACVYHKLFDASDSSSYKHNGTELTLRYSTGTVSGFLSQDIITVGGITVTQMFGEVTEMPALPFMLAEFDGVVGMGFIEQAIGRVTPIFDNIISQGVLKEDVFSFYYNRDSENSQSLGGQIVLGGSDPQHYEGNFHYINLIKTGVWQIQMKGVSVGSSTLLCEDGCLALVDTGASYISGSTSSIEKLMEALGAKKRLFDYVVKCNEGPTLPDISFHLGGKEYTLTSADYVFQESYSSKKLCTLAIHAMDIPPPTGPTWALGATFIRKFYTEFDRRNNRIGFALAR
Assay: Inhibitory activity against human renin (fluorogenic peptide substrate)
Type: biochemical
Settings: 50% inhibitory concentration (IC50) against human renin, 37° C. for 1 hour
Procedure: Inhibitory Activity Against Human Renin A substrate of synthetic peptide (Nma-KHPFH LVIHK(Dnp)-NH2) and test compound were mixed, and fluorescence intensity was assayed using a fluorophotometer before starting an enzymatic reaction (exciting wavelength: 340 nm, measuring wavelength: 460 nm). […]
Would you please state pIC50, meaning minus log10 of the concentration in mol/L, as a bare number?

Return reported pIC50; argument: COC(=O)NCCCn1nc([C@@H](C)N(C(=O)[C@H]2CNCCO2)C2CC2)cc1-c1cccc(F)c1 [Example 172] 9.40

Return reported pIC50; argument: CCc1cn(CCCOC)c2cc([C@@H](C)N(C(=O)[C@H]3CNCCO3)C3CC3)nc(CC)c12 [Example 152] 8.96

Return reported pIC50; argument: COCCCCn1cc([C@@H](C)N(C(=O)[C@H]2CNCCO2)C2CC2)c2ccnc(C)c21 [Example 134] 8.20

Return reported pIC50; argument: COC(=O)NCCCc1cc([C@@H](C)N(C(=O)[C@H]2CNCCO2)C2CC2)nc(C2CC2)n1 [Example 374] 8.27

Return reported pIC50; argument: COC(=O)NCCCc1nc([C@@H](C)N(C(=O)[C@H]2CNCCO2)C2CC2)cnc1O[C@H]1CCOC1 [Example 424] 8.30

Return reported pIC50; argument: COC(=O)NCCCn1nc([C@@H](C)N(C(=O)[C@H]2CNCCO2)C2CC2)c2c1C(C)(C)CC2 [Example 233] 9.52

Return reported pIC50; argument: COC(=O)NCCCc1nc([C@@H](C)N(C(=O)[C@H]2CNCCO2)C2CC2)sc1-c1ccccc1 [Example 218] 8.96
